- Tested on: U2OS
- protocol-description: Multiplex assay against U2OS
- Format: toxicity, cell-based
- test-settings: human, 12 h, 1 µM, compound concentration 1 uM, replicate 2
Property: Population Tubulin-Different-Phenotype (%); scope: individual molecules
measurement-kind: Population Tubulin-Different-Phenotype (%)

molecule="COc1cc2ncn(-c3cc(OCc4ccccc4C(F)(F)F)c(C(N)=O)s3)c2cc1OC [GW843682X]" quantitative_result=20
molecule=COc1cc(Nc2nccc(-c3cnn4nc(OC)ccc34)n2)cc(C(F)(F)F)c1 quantitative_result=16
molecule=Cc1nc(N2CC[C@H](O)C2)ncc1-c1cc(C(F)(F)F)cc2[nH]ncc12 quantitative_result=19
molecule="Cc1cccc(CN2CCN(C(c3ccccc3)c3ccc(Cl)cc3)CC2)c1.Cl.Cl (centres undefined)" quantitative_result=23
molecule="CC1=C(C(=O)Nc2cc3cn[nH]c3cc2F)C(c2ccc(C(F)(F)F)cc2)CC(=O)N1 (centres undefined)" quantitative_result=14
molecule=C=CC(=O)Nc1cccc(Oc2nc(Nc3ccc(N4CCN(C)CC4)cc3OC)ncc2Cl)c1 quantitative_result=100
molecule=COC(=O)C1=C(C)NC(C)=C(C(=O)OCCCN2CCC(c3ccccc3)(c3ccccc3)CC2)[C@H]1c1cccc([N+](=O)[O-])c1 quantitative_result=100
molecule=CC(C)Oc1ccccc1C(=O)Nc1ccccc1C(=O)Nc1cccc(S(=O)(=O)C(F)(F)F)c1 quantitative_result=37
molecule="CCc1nn(CCCN2CCN(c3cccc(Cl)c3)CC2)c(=O)n1CCOc1ccccc1.Cl [NEFAZODONE HYDROCHLORIDE]" quantitative_result=29

---

- Tested on: Fibroblast
- protocol-description: Multiplex assay against human fibroblast
- Assay type: toxicity, cell-based
- test-settings: 48 h, 1 µM, compound concentration 1 uM, replicate 2
measurement-kind: Population Mitochondria Different-Phenotype (%)

compound="Cc1ccc2c(c1)c1c(n2CCc2ccc(C)nc2)CCN(C)C1 [LATREPIRDINE]" result=6%
compound=CC(C)(C)NC[C@H](O)COc1nsnc1N1CCOCC1 result=1%
compound=CNC(=O)Nc1ccc(-c2nc(N3CC4CCC(C3)O4)c3cnn(C4CCC5(CC4)OCCO5)c3n2)cc1 result=2%
compound=CC(C)NC(=O)N1CC[C@H](NC2=Nc3cc(F)ccc3N(CC(F)F)c3ccc(Cl)cc32)C1 result=3%
compound=COc1cc(Nc2nccc(-c3cnn4nc(OC)ccc34)n2)cc(C(F)(F)F)c1 result=4%
compound=CCc1ccc(OCc2ccccc2C(=O)Nc2ccc3nc(C)cc(N)c3c2)cc1.Cl result=55%

---

Recorded Population Fragmented Nuclei (%) values for a group of molecules are listed next.
- System: Fibroblast
- protocol-description: Multiplex assay against human fibroblast
- Type: toxicity, cell-based
- test-settings: 48 h, 10 µM, compound concentration 10 uM, replicate 2
measurement-kind: Population Fragmented Nuclei (%)

molecule=COc1ccc(-c2ccc3ncc4c(c3c2)n(-c2ccc(N3CCNCC3)c(C(F)(F)F)c2)c(=O)n4C)cn1.O=C(O)/C=C\C(=O)O quantitative_result=75
molecule=CCOC(=O)Nc1cc(-c2ccc(C)c(NS(C)(=O)=O)c2)nn2c(C)nnc12 quantitative_result=18
molecule="COc1cc2ncn(-c3cc(OCc4ccccc4C(F)(F)F)c(C(N)=O)s3)c2cc1OC [GW843682X]" quantitative_result=29
molecule=Cl.O=C(O)c1cc(-c2ccc(C3CCNCC3)cc2)c2ccc(-c3ccc(C(F)(F)F)cc3)cc2c1 quantitative_result=57
molecule=COC(=O)C1=C(C)NC(C)=C(C(=O)OCCCN2CCC(c3ccccc3)(c3ccccc3)CC2)[C@H]1c1cccc([N+](=O)[O-])c1 quantitative_result=68
molecule=CC(C)Oc1ccccc1C(=O)Nc1ccccc1C(=O)Nc1cccc(S(=O)(=O)C(F)(F)F)c1 quantitative_result=66
molecule="Cc1ccccc1C(c1ccccc1C)N1C2CCC1CC(O)(c1ccccc1)C2 (stereo not drawn)" quantitative_result=35
molecule="Cc1cccc(CN2CCN(C(c3ccccc3)c3ccc(Cl)cc3)CC2)c1.Cl.Cl (stereo not drawn)" quantitative_result=42
molecule=CC(C)OC(=O)N1CCC(Oc2ncnc3c2cnn3-c2ccc(S(C)(=O)=O)cc2F)CC1 quantitative_result=22
molecule=CCc1ccc(OCc2ccccc2C(=O)Nc2ccc3nc(C)cc(N)c3c2)cc1.Cl quantitative_result=86
molecule=C#Cc1cccc(Nc2ncnc3cc(OCCOC)c(OCCOC)cc23)c1 quantitative_result=28
molecule=CCCSc1nc(N[C@@H]2C[C@H]2c2ccc(F)c(F)c2)c2nnn([C@@H]3C[C@H](OCCO)[C@@H](O)[C@H]3O)c2n1 quantitative_result=32
molecule=Cc1ccc(C)c(Oc2ccncc2C(=O)N2CCN(C3CC3)c3ccccc32)c1 quantitative_result=42
molecule=C[C@]12CC[C@@H]3c4ccc(O)cc4CC[C@H]3[C@@H]1CC[C@@H]2O quantitative_result=32
molecule=CC(C)c1noc(N2CCC(COc3ccc(-c4ccc(S(C)(=O)=O)cc4)nc3)CC2)n1 quantitative_result=21
molecule="O=C(c1cc2c(cc1F)OC(c1ccc(F)cc1)(c1ccc(Cl)cc1Cl)O2)N1CCOCC1 (stereo not drawn)" quantitative_result=34
molecule=CC(C)NC(=O)N1CC[C@H](NC2=Nc3cc(F)ccc3N(CC(F)F)c3ccc(Cl)cc32)C1 quantitative_result=24
molecule="Cc1ccc2c(c1)c1c(n2CCc2ccc(C)nc2)CCN(C)C1 [LATREPIRDINE]" quantitative_result=34
